Test system: CCRIS mutagenicity, Ames/micronucleus/aberration tests
Test: CCRIS mutagenicity studies
Details: Test System: Ames Salmonella typhimurium; Strain/Indicator: TA102; Metabolic Activation: None; Method: Preincubation
Active and inactive are the calls of the source. How the calls were made is not given here.
Return exactly one item of True (active), False (inactive)

These solved cases illustrate the format of a correct answer.
Input: Short answer needed: outcome of this test for O=c1oc2cc(O)ccc2c2oc3cc(O)ccc3c12 ?
Output: False

Input: // query: Oc1cc(O)c2c(c1)O[C@H](c1cc(O)c(O)c(O)c1)[C@H](O)C2
Output: False

Input: // query: O=c1c2ccccc2c(=O)c2c1cc(Cl)c1[nH]c3c([nH]c12)c(Cl)cc1c(=O)c2ccccc2c(=O)c13
Output: False

Input: // query: CCN(CC)c1ccc(/C=C/C2=[N+](C)c3ccccc3C2(C)C)cc1
Output: False

Input: // query: O=C(O[C@@H]1Cc2c(O)cc(O)cc2O[C@H]1c1cc(O)c(O)c(O)c1)c1cc(O)c(O)c(O)c1
Output: False

Further cases:
Input: Short answer needed: outcome of this test for O=c1c(O)c(-c2ccc(O)c(O)c2)oc2cc(O)ccc12 ?
Output: False

Input: // query: O=C(O)c1cc(O)c2c(c1)C(=O)c1cccc(O)c1C2=O
Output: True

###

Test system: CCRIS mutagenicity, Ames/micronucleus/aberration tests
Assay: CCRIS mutagenicity studies
Details: Test System: AMES SALMONELLA TYPHIMURIUM; Strain/Indicator: TA100; Metabolic Activation: GUINEA PIG, LIVER, S-9, PCB; Method: PREINCUBATION
The source made the active and inactive calls. No rule for the calls is given here.
Return exactly one item of t (active), f (inactive)

These solved cases illustrate the format of a correct answer.
Input: Short answer needed: outcome of this test for Cc1cc(=O)n(-c2ccccc2)n1C ?
Output: f

Input: // query: CC(=O)Nc1ccccc1
Output: f

Input: // query: CCOc1ccc(NC(C)=O)cc1
Output: t

Input: // query: COc1ccc2cc([C@H](C)C(=O)O)ccc2c1
Output: f

As a next step, examine the molecule that follows.
Input: Short answer needed: outcome of this test for O=C(O)c1ccccc1O ?
Output: f

###

Test system: CCRIS mutagenicity, Ames/micronucleus/aberration tests
Experiment: CCRIS mutagenicity studies
Settings: Test System: AMES SALMONELLA TYPHIMURIUM; Strain/Indicator: TA100; Metabolic Activation: HAMSTER, LIVER, S-9, AROCLOR 1254 (10%); Method: PREINCUBATION
The source made the active and inactive calls. How the calls were made is not given here.
Return exactly one item of class 1 for active, class 0 for inactive

Input: Short answer needed: outcome of this test for ClCC(Cl)CCl ?
Output: class 1

Input: // query: Oc1cccc2cccnc12
Output: class 1

Input: // query: O=C1OC(=O)c2c(Cl)c(Cl)c(Cl)c(Cl)c21
Output: class 0

Input: // query: CNc1ccccc1
Output: class 0

Input: // query: CCC(C)c1ccccc1O (configuration not stated)
Output: class 0

Input: // query: BrCC(Br)C1CCC(Br)C(Br)C1 (configuration not stated)
Output: class 0

Input: // query: CC[C@H]1CN2CCc3cc(OC)c(OC)cc3[C@@H]2C[C@@H]1C[C@H]1NCCc2cc(OC)c(OC)cc21
Output: class 0

Input: // query: CC(Cl)Cl
Output: class 0

Further cases:
Input: Short answer needed: outcome of this test for CCCCOCCCC ?
Output: class 0

Input: // query: Cc1ccc(Cl)cc1
Output: class 0

Input: // query: c1ccc(N(c2ccccc2)c2ccccc2)cc1
Output: class 0

Input: // query: CN(C)C(=S)N(C)C
Output: class 0

Input: // query: CCCC(C)(COC(N)=O)COC(=O)NC(C)C (configuration not stated)
Output: class 0

Input: // query: COP(=S)(OC)SCn1nnc2ccccc2c1=O
Output: class 0

Input: // query: Cc1ccc(N)cc1O
Output: class 1
